Test: Ratio of CC50/EC50 was determined
Format: cell-based
Details: human, CEM-SS cells; read-out: TI
molecules and their reported selectivity ratio

// query For the molecule COC(=O)c1cc(C(=CCCCc2ccccc2)c2cc(Br)c(OC)c(C(=O)OC)c2)cc(Br)c1OC , what selectivity ratio is on record?
// result > 15

// query For the molecule C=CCCCC=C(c1cc(Br)c(OC)c(C(=O)OC)c1)c1cc(Br)c(OC)c(C(=O)OC)c1 , what selectivity ratio is on record?
// result > 24

// query For the molecule CCCCCC=C(c1cc(Cl)c(OC)c(C(=O)OC)c1)c1cc(Cl)c(OC)c(C(=O)OC)c1 , what selectivity ratio is on record?
// result > 1.8

// query For the molecule C#CCCCC=C(c1cc(Br)c(OC)c(C(=O)OC)c1)c1cc(Br)c(OC)c(C(=O)OC)c1 , what selectivity ratio is on record?
// result > 43

// query For the molecule COC(=O)c1cc(C(=CCCCc2ccccc2)c2cc(Cl)c(OC)c(C(=O)OC)c2)cc(Cl)c1OC , what selectivity ratio is on record?
// result > 43

// query For the molecule C=CCCCC=C(c1cc(Cl)c(OC)c(C(=O)OC)c1)c1cc(Cl)c(OC)c(C(=O)OC)c1 , what selectivity ratio is on record?
// result > 15

***
// query For the molecule CCCOC(=O)CCCC=C(c1cc(Br)c(OC)c(C(=O)OC)c1)c1cc(Br)c(OC)c(C(=O)OC)c1 , what selectivity ratio is on record?
// result > 17.5

// query For the molecule COC(=O)c1cc(C(=CCCCC(=O)OCC[Si](C)(C)C)c2cc(C)c(OC)c(C(=O)OC)c2)cc(C)c1OC , what selectivity ratio is on record?
// result > 2.1
